src = paper PMC9490236

Assay: Pharmacokinetics and oral bioavailability of D11.3 in male Swiss albino mice (IV, PO, SQ)
Type: in vivo
Conditions: male, Swiss albino, mouse, plasma, sc, 5 mg/kg, SC 5.00 mg/kg, 5 h, individual mice M1, M2, M3; read-out: Plasma concentration
Where a SMILES comes first, the peptide text is derived from it. [ ]: non-standard residue; d: D form. dNMeI = CC[C@@H](C)[C@@H](NC)C(=O)O; NMeL = CN[C@@H](CC(C)C)C(=O)O
value.type: level at 5 h (ng/mL)
Please reply with the bare figure in ng/mL and do not write the unit itself.

Tell me the measured level at 5 h of CC[C@@H](C)[C@H]1NC(=O)[C@H]([C@@H](C)CC)NC(=O)[C@H](CC(C)C)N(C)C(=O)[C@H]2CCCN2C(=O)[C@@H]([C@H](C)CC)NC(=O)[C@@H]([C@H](C)CC)N(C)C(=O)[C@H](CC(C)C)NC(=O)[C@H]2CCCN2C(=O)[C@@H]2CCCN2C(=O)[C@H](C(C)C)NC(=O)[C@H]2CCCN2C1=O [Design D11.3] (cyclo(I[dI][dP]VP[dP]L[dNMeI][dI][dP][NMeL])) , please.
117

---

Test system: Caco-2 cells
Assay: Caco-2 permeability assay (apical to basolateral)
Type: in vitro ADME, human
Conditions: Caco-2
Where a SMILES comes first, the peptide text is derived from it. [ ]: non-standard residue; d: D form. ξ: configuration not given here. dIle(3ξ) = CCC(C)[C@@H](N)C(=O)O; dNMeF = CN[C@H](Cc1ccccc1)C(=O)O; NMeL = CN[C@@H](CC(C)C)C(=O)O; dNMeL = CN[C@H](CC(C)C)C(=O)O; NMeA = CN[C@@H](C)C(=O)O; dNMeA = CN[C@H](C)C(=O)O
Please assign not satisfied whenever Caco_R1 is at or above 3, and satisfied whenever it is below.

Please review the following examples before continuing.
CC[C@@H](C)[C@H]1NC(=O)[C@@H](CC(C)C)NC(=O)[C@@H](CC(C)C)N(C)C(=O)[C@@H]2CCCN2C(=O)[C@@H](C(C)C)NC(=O)[C@@H](CC(C)C)NC(=O)[C@@H](CC(C)C)N(C)C(=O)[C@@H]2CCCN2C1=O [Design D8.3.p2, DLEU DVAL PRO *DLEU DLEU DILE PRO *DLEU] (cyclo(P[dNMeL][dL][dI]P[dNMeL][dL][dV])) ... not satisfied
CC(C)C[C@@H]1C(=O)N[C@H](CC(C)C)C(=O)N2CCC[C@@H]2C(=O)N2CCC[C@@H]2C(=O)N(C)[C@@H](CC(C)C)C(=O)N[C@H](CC(C)C)C(=O)N2CCC[C@@H]2C(=O)N2CCC[C@H]2C(=O)N1C [Design D8.32, DPRO DPRO *LEU DLEU DPRO PRO *DLEU DLEU] (cyclo([dNMeL][dL][dP][dP][NMeL][dL][dP]P)) ... satisfied
CCC(C)[C@H]1NC(=O)[C@H](CC(C)C)NC(=O)[C@@H](C)N(C)C(=O)[C@@H]2CCCN2C(=O)[C@H](C)NC(=O)[C@@H](CC(C)C)NC(=O)[C@H]2CCCN2C(=O)[C@H](C(C)C)NC(=O)[C@@H](CC(C)C)N(C)C1=O (stereo partly drawn) [Design D9.30] (cyclo(AP[dNMeA]L[dIle(3ξ)][dNMeL]V[dP][dL])) ... satisfied

Is Caco_R1 strictly under 3 for the entry CC[C@@H](C)[C@H]1NC(=O)[C@H](CC(C)C)NC(=O)[C@@H](CC(C)C)NC(=O)[C@H](C(C)C)NC(=O)[C@@H](Cc2ccccc2)N(C)C(=O)[C@@H]2CCCN2C(=O)[C@@H](CC(C)C)NC(=O)[C@H](CC(C)C)N(C)C(=O)[C@H]2CCCN2C1=O [Design D9.3] (cyclo(L[dI][dP][NMeL][dL]P[dNMeF]V[dL])) ?
satisfied

Is Caco_R1 strictly under 3 for the entry CC[C@@H](C)[C@H]1NC(=O)[C@@H](CC(C)C)N(C)C(=O)[C@@H]2CCCN2C(=O)[C@@H]([C@H](C)CC)NC(=O)[C@@H](CC(C)C)NC(=O)[C@@H](CC(C)C)N(C)C(=O)[C@@H]2CCCN2C(=O)[C@@H](C(C)C)NC1=O [Design D8.8, PRO *DLEU DLEU DILE PRO *DLEU DILE DVAL] (cyclo(P[dNMeL][dI][dV]P[dNMeL][dL][dI])) ?
not satisfied

Is Caco_R1 strictly under 3 for the entry CC[C@@H](C)[C@H]1NC(=O)[C@@H](Cc2ccccc2)NC(=O)[C@@H](CC(C)C)NC(=O)[C@@H]2CCCN2C(=O)[C@H]2CCCN2C(=O)[C@H](CC(C)C)NC(=O)[C@H](CC(C)C)NC(=O)[C@@H](CC(C)C)N(C)C(=O)[C@H](C)N(C)C(=O)[C@H]2CCCN2C1=O [Design D10.34] (cyclo([dL][dF][dI][dP][NMeA][dNMeL]LL[dP]P)) ?
not satisfied

---

Test: Pharmacokinetics and oral bioavailability of D8.3.p1 and D10.1 in Balb/C female mice (PO, SQ, IV)
Assay type: in vivo
Conditions: female, Balb/C, mouse, in vivo, sc, 5 mg/kg, Plasma level
Where a SMILES comes first, the peptide text is derived from it. [ ]: non-standard residue; d: D form. dNMeL = CN[C@H](CC(C)C)C(=O)O
value.type: level at time molar at 0.5 h

Tell me the measured level at time molar at 0.5 h of CC[C@@H](C)[C@H]1NC(=O)[C@@H](CC(C)C)NC(=O)[C@@H](CC(C)C)N(C)C(=O)[C@@H]2CCCN2C(=O)[C@@H](C(C)C)NC(=O)[C@H](CC(C)C)NC(=O)[C@@H](CC(C)C)N(C)C(=O)[C@@H]2CCCN2C1=O [Design D8.3.p1, DLEU DVAL PRO *DLEU DLEU DILE PRO *DLEU] (cyclo(L[dV]P[dNMeL][dL][dI]P[dNMeL])) , please.
540 nM

---

Assay: Pharmacokinetics and oral bioavailability of D8.3.p1 and D10.1 in Balb/C female mice (PO, SQ, IV)
Assay type: in vivo
Settings: female, Balb/C, mouse, plasma, iv, […], D10.1 IV […], mean n=3; read-out: Half-life T1/2
value.type: half-life (h)
Please reply with the bare figure in h and do not write the unit itself.

Tell me the measured half-life of `CC[C@H](C)[C@@H]1NC(=O)[C@@H](CC(C)C)NC(=O)[C@H](CC(C)C)N(C)C(=O)[C@H](Cc2ccccc2)NC(=O)CN(C)C(=O)[C@@H]2CCCN2C(=O)[C@H](C(C)C)NC(=O)[C@H](Cc2ccccc2)N(C)C(=O)[C@H]2CCCN2C(=O)[C@H](CC(C)C)NC1=O` , please.
1.12

---

Conditions: PAMPA, apparent permeability (Papp) in PAMPA
Where a SMILES comes first, the peptide text is derived from it. [ ]: non-standard residue; d: D form. NMeF = CN[C@@H](Cc1ccccc1)C(=O)O; dNMeA = CN[C@H](C)C(=O)O
value.type: Papp (×10⁻⁶ cm/s)
Please reply with the bare figure in ×10⁻⁶ cm/s and do not write the unit itself.

Tell me the measured Papp of CC[C@H](C)[C@@H]1NC(=O)[C@H](Cc2ccccc2)N(C)C(=O)[C@H]2CCCN2C(=O)[C@H]([C@@H](C)CC)NC(=O)[C@@H](C)N(C)C(=O)[C@@H](C)NC(=O)[C@@H]2CCCN2C(=O)[C@H]2CCCN2C(=O)[C@H](CC(C)C)NC(=O)[C@@H](CC(C)C)NC(=O)[C@H](CC(C)C)NC(=O)[C@H]2CCCN2C1=O [Design D12.6] (cyclo([dA][dNMeA]I[dP][NMeF]I[dP]L[dL]L[dP]P)) , please.
1.47

---

System: Caco-2 cells
Experiment: Caco-2 permeability assay (apical to basolateral)
Assay type: in vitro ADME, human
Settings: Caco-2
Where a SMILES comes first, the peptide text is derived from it. [ ]: non-standard residue; d: D form. NMeI = CC[C@H](C)[C@H](NC)C(=O)O; NMeL = CN[C@@H](CC(C)C)C(=O)O; dNMeL = CN[C@H](CC(C)C)C(=O)O
Listing of recorded Caco_R1 by entry.
Reply: number alone, nothing else.

The cases that follow already have their Caco_R1 on record.
CC[C@@H](C)[C@H]1NC(=O)[C@@H](CC(C)C)NC(=O)[C@@H](CC(C)C)N(C)C(=O)[C@@H]2CCCN2C(=O)[C@@H](C(C)C)NC(=O)[C@H](CC(C)C)NC(=O)[C@@H](CC(C)C)N(C)C(=O)[C@@H]2CCCN2C1=O [Design D8.3.p1, DLEU DVAL PRO *DLEU DLEU DILE PRO *DLEU] (cyclo(L[dV]P[dNMeL][dL][dI]P[dNMeL])) ... 13.1
CC(C)C[C@@H]1NC(=O)[C@H](Cc2ccccc2)NC(=O)[C@@H](CC(C)C)NC(=O)[C@H]2CCCN2C(=O)[C@H](C(C)C)NC(=O)[C@@H](CC(C)C)NC(=O)[C@H]2CCCN2C(=O)[C@@H]2CCCN2C1=O [Design D8.5.p2, PHE LEU PRO DPRO DLEU VAL DPRO DLEU] (cyclo(FLP[dP][dL]V[dP][dL])) ... 17.839

Tell me the measured Caco_R1 of CC[C@H](C)[C@H]1C(=O)N[C@H](C)C(=O)N[C@@H](CC(C)C)C(=O)N[C@@H](C(C)C)C(=O)N2CCC[C@@H]2C(=O)N(C)[C@@H](CC(C)C)C(=O)N[C@@H](C(C)C)C(=O)N2CCC[C@H]2C(=O)N(C)[C@H](CC(C)C)C(=O)N[C@@H](C(C)C)C(=O)N1C [Design D10.19] (cyclo(LV[dP][NMeL]VP[dNMeL]V[NMeI][dA])) , please.
15.38
